This listing pairs molecules with measured DC50.
TEST_TARGET: BRD4 (Homo sapiens)
Construct: HEK293 containing a HiBit insertion for BRD4; endogenous in cells; host or cells: HEK293 with a HiBiT insertion for BRD4
RUN_DESCRIPTION: Assay 1 - Degradation of HiBit-BRD4 in HEK293
Type: cell-based
CONDITION_SET: HiBit-BRD4 in HEK293, 6 h treatment

Reference set (5 entries):
CC(=O)N1c2ccc(-c3ccc(C(=O)NCCOCCOCCOCCOCCOCCNC(=O)C4CC(C5CCCCC5)CN(C(=O)/C(C#N)=C/C(C)(C)CN5CCOCC5)C4)cc3)cc2[C@H](Nc2ccc(Cl)cc2)C[C@@H]1C (some centres unmarked) [Example 13t]: 25 to 200 nM
CC(=O)N1c2ccc(-c3ccc(C(=O)NCCOCCOCCOCCOCCOCCNC(=O)C4CC(c5cccc(C)c5)CN(C(=O)/C(C#N)=C/c5nccs5)C4)cc3)cc2[C@H](Nc2ccc(Cl)cc2)C[C@@H]1C (some centres unmarked) [Example 13at]: 25 to 200 nM
CC(=O)N1c2ccc(-c3ccc(C(=O)NCCOCCOCCOCCOCCOCCNC(=O)C4CC(C(C)C)CN(C(=O)/C(C#N)=C/C(C)(C)C)C4)cc3)cc2[C@H](Nc2ccc(Cl)cc2)C[C@@H]1C (some centres unmarked) [Example 13l]: > 200 nM
CC(=O)N1c2ccc(-c3ccc(C(=O)NCCOCCOCCOCCOCCOCCNC(=O)C4CC(c5cccc(C)c5)CN(C(=O)/C(C#N)=C/c5ccn(C)n5)C4)cc3)cc2[C@H](Nc2ccc(Cl)cc2)C[C@@H]1C (some centres unmarked) [Example 13av]: > 200 nM
CC(=O)N1c2ccc(-c3ccc(C(=O)NCCOCCOCCOCCOCCOCCNC(=O)C4CCCN(C(=O)/C(C#N)=C/c5ccc(F)cc5)C4)cc3)cc2[C@H](Nc2ccc(Cl)cc2)C[C@@H]1C (some centres unmarked) [Example 13d]: > 200 nM

Assay BRD4 (Homo sapiens), sample CC(=O)N1c2ccc(-c3ccc(C(=O)NCCOCCOCCOCCOCCOCCNC(=O)[C@@H]4CN(C(=O)/C(C#N)=C/C(C)(C)C)C[C@H]4c4cccc(C)c4)cc3)cc2[C@H](Nc2ccc(Cl)cc2)C[C@@H]1C [Example 15ak] , DC50 read: 25 to 200 nM

Here CC(=O)N1c2ccc(-c3ccc(C(=O)NCCOCCOCCOCCOCCOCCNC(=O)C4CC(c5ccccc5)CN(C(=O)/C(C#N)=C/c5nccs5)C4)cc3)cc2[C@H](Nc2ccc(Cl)cc2)C[C@@H]1C (some centres unmarked) [Example 13z] was tested on BRD4 (Homo sapiens), and its DC50 came to < 25 nM

GET /values?item= CC(=O)N1c2ccc(-c3ccc(C(=O)NCCOCCOCCOCCOCCOCCNC(=O)C4CC(C5CC5)CN(C(=O)/C(C#N)=C/c5ccc(F)cc5)C4)cc3)cc2[C@H](Nc2ccc(Cl)cc2)C[C@@H]1C (some centres unmarked) [Example 13x] &system= BRD4 (Homo sapiens) returns DC50: 25 to 200 nM

Reported DC50 (BRD4 (Homo sapiens)) for entry CC(=O)N1c2ccc(-c3ccc(C(=O)NCCOCCOCCOCCOCCOCCNC(=O)CN4CCC(C5CCCN5C(=O)/C(C#N)=C/c5cscn5)CC4)cc3)cc2[C@H](Nc2ccc(Cl)cc2)C[C@@H]1C (some centres unmarked) [Example 14a] is 25 to 200 nM

Summary: CC(=O)N1c2ccc(-c3ccc(C(=O)NCCOCCOCCOCCOCCOCCNC(=O)[C@@H]4CN(C(=O)/C(C#N)=C/c5ccn(C)n5)C[C@H]4c4cccc(C)c4)cc3)cc2[C@H](Nc2ccc(Cl)cc2)C[C@@H]1C [Example 15al] , BRD4 (Homo sapiens), DC50 = > 200 nM

For the molecule COc1ccc(C2CC(C(=O)NCCOCCOCCOCCOCCOCCNC(=O)c3ccc(-c4ccc5c(c4)[C@H](Nc4ccc(Cl)cc4)C[C@H](C)N5C(C)=O)cc3)CN(C(=O)/C(C#N)=C/c3ccc(F)cc3)C2)cc1 (some centres unmarked) [Example 13ah] , the measured DC50 on BRD4 (Homo sapiens) was 25 to 200 nM

// returns DC50 for CC(=O)N1c2ccc(-c3ccc(C(=O)NCCOCCOCCOCCOCCOCCNC(=O)C4CC(c5ccc(C(F)(F)F)cc5)CN(C(=O)/C(C#N)=C/C(C)(C)C)C4)cc3)cc2[C@H](Nc2ccc(Cl)cc2)C[C@@H]1C (some centres unmarked) [Example 13ak] with BRD4 (Homo sapiens); value = 25 to 200 nM

Entry COc1ccc(C2CC(C(=O)NCCOCCOCCOCCOCCOCCNC(=O)c3ccc(-c4ccc5c(c4)[C@H](Nc4ccc(Cl)cc4)C[C@H](C)N5C(C)=O)cc3)CN(C(=O)/C(C#N)=C/c3ccn(C)n3)C2)cc1 (some centres unmarked) [Example 13ag] ; assay system BRD4 (Homo sapiens); DC50 recorded at 25 to 200 nM

Entry CC(=O)N1c2ccc(-c3ccc(C(=O)NCCOCCOCCOCCOCCOCCNC(=O)[C@@H]4CN(C(=O)/C(C#N)=C/c5ccc(F)cc5)C[C@H]4C(C)C)cc3)cc2[C@H](Nc2ccc(Cl)cc2)C[C@@H]1C [Example 15i] ; assay system BRD4 (Homo sapiens); DC50 recorded at > 200 nM
